// data source = patent EP4692072A1

Test: Photochromic properties of binder sheet (photochromic layer prepared by binder method)
Type: physicochemical
Settings: urethaneurea resin binder sheet, 0.25 mmol per 100 parts by mass resin, after color development
observable: Maximum absorption wavelength (nm)

compound: COCCC1(CCOC)c2ccccc2-c2c1c1c(c3cc(OC)c(-c4ccc(N(c5ccccc5)c5ccccc5)cc4)cc23)OC(c2ccc(Oc3ccccc3)cc2)(c2ccc(N(C)c3ccccc3)cc2)C=C1 (centres unmarked)
observedValue: 506
--
compound: CCCCOCCC1(CCOCCCC)c2ccccc2-c2c1c1c(c3cc(OC)c(NC(=O)c4ccccc4)cc23)OC(c2ccc(N(C)c3ccccc3)cc2)(c2ccc(OC)c(F)c2)C=C1 (centres unmarked)
observedValue: 502
--
compound: COc1ccc(N(C)c2ccc(C3(c4ccc(CCO[Si](C)(C)CC[Si](O[Si](C)(C)C)(O[Si](C)(C)C)O[Si](C)(C)C)cc4)C=Cc4c5c(c6cc(N(C)c7ccccc7)c(OC)cc6c4O3)-c3ccc(C(F)(F)F)cc3C53CCC(C)(C)CC3)cc2)cc1 (centres unmarked)
observedValue: 524
--
compound: CCCC1(CCC)c2ccccc2-c2c1c1c(c3cc(OC)c(-c4ccc(OC)cc4OC)cc23)OC(c2ccc(C)cc2)(c2ccc(N(C)c3ccccc3)cc2)C=C1 (centres unmarked)
observedValue: 492
--
compound: CCCC1(CCC)c2cc(OC(F)(F)F)ccc2-c2c1c1c(c3cc(OC)c(Sc4c(C)cccc4C)cc23)OC(c2ccc(N(C)c3ccccc3)cc2)(c2ccc(OC)c(OC)c2)C=C1 (centres unmarked)
observedValue: 493

----------
Listed next: entries and their corresponding Residual rate.
Assay: Accelerated deterioration (xenon weather meter X25, 120 hours) of binder sheet prepared by binder method
Assay type: physicochemical
Details: 0.25 mmol per 100 parts by mass resin, A120/A0×100 after 120 hours xenon weather meter

molecule: CCCC1(CCC)c2cc(OC(F)(F)F)ccc2-c2c1c1c(c3cc(OC)c(Sc4c(C)cccc4C)cc23)OC(c2ccc(N(C)c3ccccc3)cc2)(c2ccc(OC)c(OC)c2)C=C1 (stereo not drawn) [Example 57]
unitString: %
Residual rate: 91
//
molecule: CCN(c1ccc(OC)cc1)c1ccc(C2(c3ccc(OC)cc3)C=Cc3c4c(c5cc(-c6ccc(N7CCOCC7)cc6)c(OC)cc5c3O2)-c2ccccc2C4(C)C)cc1 (stereo not drawn) [Example 25]
unitString: %
Residual rate: 87
//
molecule: CCCCN(c1ccccc1)c1ccc(C2(c3ccc(C)cc3)C=Cc3c4c(c5cc(N6CCOCC6)c(OC)cc5c3O2)-c2ccccc2C4(CC)CC)cc1 (stereo not drawn) [Example 10]
unitString: %
Residual rate: 91
//
molecule: COCCC1(CCOC)c2ccccc2-c2c1c1c(c3cc(OC)c(-c4ccc(N(c5ccccc5)c5ccccc5)cc4)cc23)OC(c2ccc(Oc3ccccc3)cc2)(c2ccc(N(C)c3ccccc3)cc2)C=C1 (stereo not drawn) [Example 23]
unitString: %
Residual rate: 89
//
molecule: CCCCOCCC1(CCOCCCC)c2ccccc2-c2c1c1c(c3cc(OC)c(NC(=O)c4ccccc4)cc23)OC(c2ccc(N(C)c3ccccc3)cc2)(c2ccc(OC)c(F)c2)C=C1 (stereo not drawn) [Example 53]
unitString: %
Residual rate: 87
//
molecule: COCCCCC1(CCCCOC)c2cc(Sc3c(C)cccc3C)ccc2-c2c1c1c(c3cc(OC)ccc23)OC(c2ccc(OC)cc2)(c2ccc(N(C)c3ccc(OC)cc3)cc2)C=C1 (stereo not drawn) [Example 11]
unitString: %
Residual rate: 90
